# System: HCT-15
# EXPERIMENT SUMMARY: Growth inhibition of human HCT15 cells after 48 hrs by sulforhodamine B assay
# Assay type: functional
# CONDITION CONTEXT: HCT-15, 48 h
MEASUREMENT LABEL: GI50 (µM)
Form entry: value (µM) — number only.

Below, 3 compounds whose answers are already recorded.
CCCCCCCCCCCCO[C@@H]1O[C@@H](C)[C@H](O[C@@H]2O[C@@H](C)[C@H](OC(C)=O)[C@@H](O[C@@H]3O[C@@H](C)[C@H](O)[C@@H](OC(C)=O)[C@H]3OC(C)=O)[C@H]2O)[C@@H](O)[C@H]1O; 7.38
CCCCCCCCCCCCO[C@@H]1O[C@@H](C)[C@H](O[C@@H]2O[C@@H](C)[C@H](OC(C)=O)[C@@H](O[C@@H]3O[C@@H](C)[C@H](O)[C@@H](O[C@@H]4O[C@@H](C)[C@H](OC(C)=O)[C@@H](OC(C)=O)[C@H]4OC(C)=O)[C@H]3OC(C)=O)[C@H]2O)[C@@H](O)[C@H]1O; 1.52
CCCCCCCCCCCCO[C@@H]1O[C@@H](C)[C@H](O[C@@H]2O[C@@H](C)[C@H](OC(C)=O)[C@@H](O[C@@H]3O[C@@H](C)[C@H](OC(C)=O)[C@@H](O)[C@H]3OC(C)=O)[C@H]2O)[C@@H](O)[C@H]1O; 8.39

Now examine the next entry.
Known value: HCT-15 GI50 of the compound CCCCCCCCCCCCO[C@@H]1O[C@@H](C)[C@H](O[C@@H]2O[C@@H](C)[C@H](OC(C)=O)[C@@H](O[C@@H]3O[C@@H](C)[C@H](OC(C)=O)[C@@H](O[C@@H]4O[C@@H](C)[C@H](OC(C)=O)[C@@H](OC(C)=O)[C@H]4OC(C)=O)[C@H]3OC(C)=O)[C@H]2O)[C@@H](O)[C@H]1O equals 0.82
